System: REH
Assay: Cytotoxicity against human REH cells assessed as reduction in cell viability incubated for 72 hrs by alamar blue assay
Format: functional, cell-based
pIC50: −log10 of the molar value.
QUANTITY_NAME: pIC50

[
  {
    "COMPOUND": "COc1cc(O)c(Cc2ccccc2O)c(O)c1C(=O)/C=C/c1ccccc1",
    "pIC50": "< 4.70"
  },
  {
    "COMPOUND": "CC(=O)c1c(O)cc(O)cc1O [2,4,6-TRIHYDROXYACETOPHENONE]",
    "pIC50": "< 4.70"
  },
  {
    "COMPOUND": "C=CCOc1ccccc1Cc1c(OC)cc(OC)c(C(=O)/C=C/c2ccccc2)c1OC",
    "pIC50": 4.90
  },
  {
    "COMPOUND": "COc1cc(OC)c(C(=O)CCc2ccccc2)c(OC)c1Cc1ccccc1O",
    "pIC50": "< 4.70"
  },
  {
    "COMPOUND": "COCOc1cc(OCOC)c(C(C)=O)c(OCOC)c1",
    "pIC50": "< 4.70"
  }
]

IN: Which measured pIC50 value corresponds to "COCOc1cc(O)c(C(C)=O)c(OCOC)c1" ?
OUT: < 4.70

IN: How about "COCOc1cc(OCOC)c(C(=O)/C=C/c2ccccc2)c(OCOC)c1" ?
OUT: < 4.70

IN: How about "COCOc1cc(O)c(C(=O)/C=C/c2ccccc2)c(OCOC)c1" ?
OUT: < 4.70

IN: How about "COc1cc(O)c(Cc2ccccc2O)c(O)c1C(=O)CCc1ccccc1" ?
OUT: 4.95

IN: How about "COc1cc(OC)c(C(=O)/C=C/c2ccccc2)c(OC)c1Cc1ccccc1O" ?
OUT: < 4.70

IN: How about "COCOc1cc(OC)cc(OC)c1C(C)=O" ?
OUT: < 4.70
